- Target Or System: dopamine D2S receptor (human recombinant expressed in CHO cells) (Homo sapiens (Human), UniProt P14416)
- Sequence (P14416 other isoform, or with tags, fused parts or gaps): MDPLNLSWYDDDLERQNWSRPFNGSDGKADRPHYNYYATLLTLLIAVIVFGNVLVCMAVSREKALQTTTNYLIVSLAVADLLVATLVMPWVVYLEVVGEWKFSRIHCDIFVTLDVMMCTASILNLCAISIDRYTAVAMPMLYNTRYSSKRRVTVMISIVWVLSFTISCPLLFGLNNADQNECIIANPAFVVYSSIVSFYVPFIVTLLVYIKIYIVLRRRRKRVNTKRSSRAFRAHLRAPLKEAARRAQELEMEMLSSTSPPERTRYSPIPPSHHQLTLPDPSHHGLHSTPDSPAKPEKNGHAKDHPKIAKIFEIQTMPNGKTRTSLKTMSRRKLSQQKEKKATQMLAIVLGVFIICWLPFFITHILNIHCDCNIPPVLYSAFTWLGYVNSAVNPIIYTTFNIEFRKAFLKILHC
- Assay Name: Dopamine, D2S (human recombinant) binding assay
- Applied Conditions: radioligand [3H]Spiperone
Counter-ions that a name gives are not always drawn.
Measurement Label: pKi
# pKi = -log10(concentration in molar units)

Entry under test: COc1ccccc1N1CCN(CCCCOc2ccc3c(c2)NC(=O)CO3)CC1 [Compound 15a, hydrochloride] . Its pKi was 9.52

---

- Target Or System: serotonin 5-HT1A receptor (human recombinant expressed in HEK-293 cells) (Homo sapiens (Human))
- Sequence (P08908 whole entry): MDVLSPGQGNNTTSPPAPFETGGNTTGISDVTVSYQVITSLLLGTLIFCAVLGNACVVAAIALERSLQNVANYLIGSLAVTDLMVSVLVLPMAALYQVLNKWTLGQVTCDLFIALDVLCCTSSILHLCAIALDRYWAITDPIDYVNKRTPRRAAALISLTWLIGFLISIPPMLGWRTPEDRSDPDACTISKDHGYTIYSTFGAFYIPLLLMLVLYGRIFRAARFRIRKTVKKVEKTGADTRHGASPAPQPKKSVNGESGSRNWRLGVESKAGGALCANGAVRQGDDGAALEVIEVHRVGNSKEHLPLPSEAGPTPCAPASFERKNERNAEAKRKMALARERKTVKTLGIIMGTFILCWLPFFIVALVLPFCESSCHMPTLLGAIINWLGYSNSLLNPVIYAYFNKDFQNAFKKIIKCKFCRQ
- Assay Name: Serotonin, 5HT1A (human recombinant) binding assay
- Applied Conditions: radioligand [3H]-8-OH-DPAT; human recombinant in HEK-293 cells
Where a name gives a salt, the structure may show the parent alone.
# Lookup of reported pIC50 keyed by entry
Kindly note that pIC50 refers to -log10 of the concentration in mol/L and answer with the value alone.

Compound: COc1ccccc1N1CCN(CCCCOc2ccc3c(c2)NC(=O)CO3)CC1 [Compound 15a, hydrochloride]
Endpoint Result: 9.01

Proceeding to the next compound to report its pIC50.
The compound O=C1COc2ccc(OCCCCN3CCN(c4cccc(Cl)c4Cl)CC3)cc2N1 [Compound 15b, hydrochloride] showed pIC50 equal to 8.65

---

Where a name gives a salt, the structure may show the parent alone.
A short record of Ki observed with serotonin 5-HT2A receptor (Human Cortex) (Homo sapiens (Human), UniProt P28223) follows.
Sequence (P28223 whole entry): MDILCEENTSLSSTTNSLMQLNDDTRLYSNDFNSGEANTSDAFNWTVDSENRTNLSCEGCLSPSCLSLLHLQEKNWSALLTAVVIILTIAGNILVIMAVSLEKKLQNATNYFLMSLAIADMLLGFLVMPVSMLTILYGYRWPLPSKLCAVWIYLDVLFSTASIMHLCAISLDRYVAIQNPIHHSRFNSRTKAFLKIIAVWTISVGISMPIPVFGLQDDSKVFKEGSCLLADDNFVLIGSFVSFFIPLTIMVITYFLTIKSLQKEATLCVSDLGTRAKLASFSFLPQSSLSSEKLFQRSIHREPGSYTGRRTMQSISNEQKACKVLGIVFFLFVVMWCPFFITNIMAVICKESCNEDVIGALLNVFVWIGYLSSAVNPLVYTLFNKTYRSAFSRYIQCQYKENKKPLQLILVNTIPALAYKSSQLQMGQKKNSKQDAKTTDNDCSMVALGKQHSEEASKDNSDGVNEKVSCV
Give the number; nM is assumed, so skip it.

Compound: COc1ccccc1N1CCN(CCCCOc2ccc3c(c2)NC(=O)CO3)CC1 [Compound 15a, hydrochloride]
Endpoint Result: 118

Given the compound O=C1COc2ccc(OCCCCN3CCN(c4cccc(Cl)c4Cl)CC3)cc2N1 [Compound 15b, hydrochloride] and test system serotonin 5-HT2A receptor (Human Cortex) (Homo sapiens (Human), UniProt P28223), the measured Ki is 58.5
